System: FER
Conditions: concentration: 1 μM, replicates: in singlicate; n = 1;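 note: KINOMEscan kinase panel screen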
Binning rule for recorded %Inh: b0: < 1%; b1: ≥ 1% and < 10%; b2: ≥ 10%

Compound	Answer Label
CC(C)(C)OC(=O)NC1CCCN(c2cc(-c3ccc4c(N)n[nH]c4c3)nc(N)n2)C1 (stereo not shown)	b0
CS(=O)(=O)CCNCc1nc(-c2ccc3ncnc(Nc4ccc(OCc5cccc(F)c5)c(Cl)c4)c3c2)cs1.Cl	b1
N#Cc1ccc(Oc2ccc(Nc3ncnc4cc[nH]c34)cc2Cl)cc1	b0
CC(C)(C)c1ccc(-n2cnc3c(N)ncnc32)cc1	b2
C[C@@H]1CCN(C(=O)CO)C[C@@H]1N(C)c1ncnc2[nH]ccc12	b1
CNc1nccc(-c2c(-c3ccc(F)cc3)ncn2C2CCN(C)CC2)n1	b0
Cn1ccc2ncnc(Nc3ccc(Oc4cccc(Cl)c4)c(Cl)c3)c21	b0
Nc1nc(-c2ccccn2)c(-c2ccnc3ccccc23)s1	b1
O=C(Nc1ccccc1F)NC1CCN(c2ccnc(Nc3ccc(F)cc3)n2)C1 (stereo not shown)	b2
OCCOCCn1ccc2ncnc(Nc3ccc(Oc4cccc(Cl)c4)c(Cl)c3)c21	b2
C[C@H]1CC[C@@H](C(=O)Nc2ccccc2)CN1c1cc(-c2ccc3c(N)n[nH]c3c2)nc(N)n1	b1
Cc1ccc(C)c(NC(=O)NCCNc2ccnc(Nc3ccc(F)cc3)n2)c1	b2
Cl.c1ccc(Cn2ncc3cc(Nc4ncnc5ccccc45)ccc32)cc1	b2
O=C(Nc1ccccc1)Nc1ccc(Oc2ccc3nccn3n2)cc1	b0
Nc1nccc2scc(-c3ccc4c(c3)CCN4C(=O)Cc3cc(F)ccc3F)c12	b2
Cc1ccc(NC(=O)c2cccc(C#N)c2)cc1-c1ccc(C(=O)Nc2ccncc2)cc1	b1
CSc1ccc(NC2=C(c3ccccc3Cl)C(=O)NC2=O)cc1	b1
CCc1nc(-c2cccc(N(C)S(=O)(=O)c3ccccc3)c2)c(-c2ccnc(Nc3ccc(N4CCN(C(C)=O)CC4)nc3)n2)s1	b0
FC(F)(F)c1cc(Nc2nccc(-c3c(-c4ccc(Cl)cc4)nn4ncccc34)n2)ccc1Cl	b0
Nc1nc(-c2cccnc2)c(-c2ccnc3ccccc23)s1	b2
Fc1cccc(COc2ccc(Nc3ncnc4nn5ccccc5c34)cc2Cl)c1	b2
O=c1cc(N2CCOCC2)nc2n(Cc3cccc(Cl)c3)ccn12	b1
COC(=O)c1c(-c2ccccc2)c2cc(Cl)ccc2c(=O)n1Cc1ccc(S(C)(=O)=O)cc1	b0

---

Test system: HIPK4
Details: concentration: 1 μM, replicates: in singlicate; n = 1
Listing of recorded %Inh by entry.

Molecule	Measured Target	Scale Unit	%Inh
CNc1nccc(-c2c(-c3ccc(F)cc3)ncn2C2CCN(C)CC2)n1 [SB-222903]	HIPK4	%	0
CCC(CC)(CC)n1cnc2c(N)ncnc21 [SKF-97620]	HIPK4	%	8
FC(F)(F)c1ccc(-c2nn3ncccc3c2-c2ccnc(Nc3cccc(C(F)(F)F)c3)n2)cc1 [GW828205]	HIPK4	%	11
CNc1nccc(-c2c(-c3ccc(F)cc3)ncn2CCCN2CCOCC2)n1 [SB-222516]	HIPK4	%	0
Cc1cccc(-c2nc(Nc3ccc4[nH]nnc4c3)c3ccccc3n2)n1 [GW867587]	HIPK4	%	0
CCc1nc(-c2cccc(C)c2)c(-c2ccnc(NC(=O)c3ccccc3)c2)s1	HIPK4	%	0
Fc1cccc(COc2ccc(Nc3ncnc4sc(-c5ccc[nH]5)cc34)cc2Cl)c1 [GW707818]	HIPK4	%	0
Cl.Cl.c1ccc(-c2cc3ccncc3cc2OC2CCNCC2)cc1 [GSK1122999]	HIPK4	%	0
Cl.c1ccc(Cn2ncc3cc(Nc4ncnc5ccccc45)ccc32)cc1 [GW273749]	HIPK4	%	0
CCCc1ccc(S(=O)(=O)NC2CCN(c3ccnc(Nc4ccc(OC)cc4)n3)C2)cc1 (stereo not shown) [GSK1379737]	HIPK4	%	0
OCCOCCn1ccc2ncnc(Nc3ccc(Oc4cccc(Cl)c4)c(Cl)c3)c21	HIPK4	%	0
CSc1nn2c(=O)cc(N3CCOCC3)nc2n1Cc1cccc(Cl)c1Cl [GSK2347225]	HIPK4	%	2
Cn1ccc2ncnc(Nc3ccc(Oc4cccc(Cl)c4)c(Cl)c3)c21	HIPK4	%	3
COC(=O)c1c(-c2ccccc2)c2cc(Cl)ccc2c(=O)n1Cc1ccc(S(C)(=O)=O)cc1	HIPK4	%	0
NC(=O)c1sc(-n2cnc3ccccc32)cc1OCc1ccccc1F [GSK1024306]	HIPK4	%	24
Cc1ccc(O)cc1Nc1cc(C(F)(F)F)nc2ccc(-c3ccncc3)cc12 [GW630823]	HIPK4	%	9
Fc1cccc(COc2ccc(Nc3ncnc4nn5ccccc5c34)cc2Cl)c1 [GW689066]	HIPK4	%	0
Nc1n[nH]c2nnc(-c3ccccc3)cc12 [SB-517389]	HIPK4	%	0
Clc1ccc(-c2cc(-c3c[nH]nc3-c3ccccn3)ccn2)cc1 [GW681251]	HIPK4	%	0

---

Test system: MERTK
Settings: concentration: 1 μM, replicates: in singlicate; n = 1
Flag rule - %Inh less than 5% flags MET; the remaining entries get NOT MET.

Compound	Measured Target	Answer Label
COc1ccc(Nc2nccc(N3CCC(NC(=O)c4cccc(NC(C)=O)c4)C3)n2)cc1 (stereo not drawn)	MERTK	NOT MET
C[C@@H]1CCN(C(=O)CO)C[C@@H]1N(C)c1ncnc2[nH]ccc12	MERTK	MET
COc1ccc(-c2nc3n(c2-c2ccncc2)CCC3)cc1	MERTK	MET
O=C(c1ccc(-c2cc(-c3c[nH]nc3-c3ccccn3)ccn2)cc1)N1CCCC1	MERTK	MET
Clc1cccc(-c2nc(Nc3ccncc3)c3ccccc3n2)c1	MERTK	NOT MET
Cl.c1ccc(Cn2ncc3cc(Nc4ncnc5ccccc45)ccc32)cc1	MERTK	NOT MET
COc1cc2c(Nc3cccc(NC(=O)c4ccccc4)c3)ncnc2cc1OCCCN1CCOCC1	MERTK	NOT MET
Cn1cc(-c2ccc3c(c2)CCN3C(=O)Cc2cccc(C(F)(F)F)c2)c2c(N)ncnc21	MERTK	NOT MET
FC(F)(F)c1ccc(-c2cc(-c3c[nH]nc3-c3ccccn3)ccn2)cc1	MERTK	MET
Cl.c1ccc(Cn2ccc3cc(Nc4ncnc5ccccc45)ccc32)cc1	MERTK	MET
COc1cc2ncnc(Nc3ccc(OCc4ccccc4Br)c(Cl)c3)c2cc1OC.Cl	MERTK	NOT MET
Nc1n[nH]c2nnc(-c3ccccc3)cc12	MERTK	NOT MET
Cl.Fc1ccccc1COc1ccc(Nc2ncnc3ccc(-c4nnc(C(F)(F)F)o4)cc23)cc1Cl	MERTK	NOT MET
CNc1nccc(-c2c(-c3ccc(F)cc3)ncn2CCCN2CCOCC2)n1	MERTK	NOT MET
COC(=O)c1c(-c2ccccc2)c2cc(Cl)ccc2c(=O)n1Cc1ccc(S(C)(=O)=O)cc1	MERTK	NOT MET
N#Cc1ccc(Oc2ccc(Nc3ncnc4cc[nH]c34)cc2Cl)cc1	MERTK	MET
Cc1ccc(NC(=O)c2cccc(C#N)c2)cc1-c1ccc(C(=O)Nc2ccncc2)cc1	MERTK	MET
CCc1nc(-c2cccc(C)c2)c(-c2ccnc(NC(=O)c3ccccc3)c2)s1	MERTK	MET
Nc1nc(-c2ccc3c(N)n[nH]c3c2)cc(N2CCC[C@@H](C(=O)Nc3ccccc3)C2)n1.O=C(O)C(F)(F)F.O=C(O)C(F)(F)F	MERTK	MET
Nc1nc(-c2ccccn2)c(-c2ccnc3ccccc23)s1	MERTK	MET
COc1ccc(-c2oc3ncnc(N)c3c2-c2ccc(OC)cc2)cc1	MERTK	NOT MET
O=C(Nc1n[nH]c2nc(-c3ccco3)c(Br)cc12)c1ccc(CN2CCCC2)cc1.O=C(O)[C@H](O)[C@@H](O)C(=O)O	MERTK	NOT MET
Cl.O=S(=O)(c1cccc(F)c1)c1ccc(Nc2ncnc3cc(Br)sc23)cc1Cl	MERTK	NOT MET
FC(F)(F)c1ccc(-c2nn3ncccc3c2-c2ccnc(Nc3cccc(C(F)(F)F)c3)n2)cc1	MERTK	MET
CN1CCC(n2cnc(-c3ccc(F)cc3)c2-c2ccnc(NC3CCNCC3)n2)CC1	MERTK	MET
COc1ccc(Nc2nccc(N3CCC(NC(=O)Nc4ccc5c(c4)OCO5)C3)n2)cc1 (stereo not drawn)	MERTK	NOT MET
CCC(CC)(CC)n1cnc2c(N)ncnc21	MERTK	NOT MET
NC(=O)c1sc(-n2cnc3ccccc32)cc1OCc1ccccc1F	MERTK	NOT MET
O=C(CCO)NCCn1ccc2ncnc(Nc3ccc(Oc4cccc(C(F)(F)F)c4)c(Cl)c3)c21	MERTK	MET
Nc1nc(-c2cccnc2)c(-c2ccnc3ccccc23)s1	MERTK	MET
Fc1ccc(Nc2nccc(-c3c(-c4ccc(Cl)cc4)nn4ncccc34)n2)cc1F	MERTK	MET
CCn1c(-c2ccncc2)nc2cnccc21	MERTK	MET
Fc1cccc(COc2ccc(Nc3ncnc4sc(-c5ccc[nH]5)cc34)cc2Cl)c1	MERTK	NOT MET
Fc1cccc(COc2ccc(Nc3ncnc4cc[nH]c34)cc2Cl)c1	MERTK	MET
Cc1cccc(-c2nc(Nc3ccc4[nH]nnc4c3)c3ccccc3n2)n1	MERTK	NOT MET
